Would you kindly list T₁ changed by (repeat measurement) for each of these compounds?
Assay: Paramagnetic relaxation properties in human plasma at 37°C
Format: physicochemical
Settings: 37°C, repeat measurement 80 minutes later
Numbers only, in %.

N[C@@H](Cc1ccc(O)cc1)C(=O)O.N[C@@H](Cc1ccc(O)cc1)C(=O)O.O.O.[Cl-].[Cl-].[Mn+2]; 5

# input for lookup
The recorded T₁ changed by (repeat measurement) for entry `CC(C)C[C@H](N)C(=O)O.CC(C)C[C@H](N)C(=O)O.O.O.[Cl-].[Cl-].[Mn+2]` equals 5

---

Experiment: Paramagnetic relaxation properties in human plasma at 37°C
Format: physicochemical
Settings: 37°C, repeat measurement 80 minutes later
Would you kindly list T₂ changed by (repeat measurement) for each of these molecules?
Answers are plain numbers, in %.

Batch: T₂ changed by (repeat measurement) for all items listed.
1. CC(C)[C@H](N)C(=O)O.CC(C)[C@H](N)C(=O)O.O.O.[Cl-].[Cl-].[Mn+2]
2. CC(C)C[C@H](N)C(=O)O.CC(C)C[C@H](N)C(=O)O.O.O.[Cl-].[Cl-].[Mn+2]
3. C[NH2+]CC(=O)[O-].C[NH2+]CC(=O)[O-].O.O.[Cl-].[Cl-].[Mn+2]

1. 4
2. 4
3. 4

---

Experiment: Paramagnetic relaxation properties in water at 10 MHz (0.15T), RADX spin analyzer
Format: physicochemical
Settings: in water, 10 MHz (0.15T); calculated from T₂ and concentration
Would you kindly list millimolar relaxivity for T₂ for each of these compounds?
Give bare numbers, in mM⁻¹ s⁻¹.

Batch: millimolar relaxivity for T₂ for all items listed.
1. NC(=O)C[C@H]([NH3+])C(=O)[O-].NC(=O)C[C@H]([NH3+])C(=O)[O-].O.O.[Cl-].[Cl-].[Mn+2]
2. CC(C)C[C@H](N)C(=O)O.CC(C)C[C@H](N)C(=O)O.O.O.[Cl-].[Cl-].[Mn+2]
3. O.O.O=C(O)[C@@H]1C[C@@H](O)CN1.O=C(O)[C@@H]1C[C@@H](O)CN1.[Cl-].[Cl-].[Mn+2]
4. CC[C@H](C)[C@H](N)C(=O)O.CC[C@H](C)[C@H](N)C(=O)O.O.O.[Cl-].[Cl-].[Mn+2]
5. NCC(=O)O.NCC(=O)O.O.O.[Cl-].[Cl-].[Mn+2]

36.7
39.4
39.3
37.6
38.9

Batch: millimolar relaxivity for T₂ for all items listed.
1. C[C@H](N)C(=O)O.C[C@H](N)C(=O)O.O.O.[Cl-].[Cl-].[Mn+2]
2. NCC(=O)O.N[C@@H](CO)C(=O)O.N[C@@H](Cc1c[nH]cn1)C(=O)O.O=C(O)[C@@H]1CCCN1.O=S(=O)([O-])[O-].[Mn+2]
3. NC(=O)CC[C@H](N)C(=O)O.NC(=O)CC[C@H](N)C(=O)O.O.O.[Cl-].[Cl-].[Mn+2]
4. N[C@@H](CO)C(=O)O.N[C@@H](CO)C(=O)O.O.O.[Cl-].[Cl-].[Mn+2]
5. N[C@@H](Cc1ccc(O)cc1)C(=O)O.N[C@@H](Cc1ccc(O)cc1)C(=O)O.O.O.[Cl-].[Cl-].[Mn+2]
6. C[NH2+]CC(=O)[O-].C[NH2+]CC(=O)[O-].O.O.[Cl-].[Cl-].[Mn+2]

39.3
35.7
39.0
37.8
38.7
39.3

Batch: millimolar relaxivity for T₂ for all items listed.
1. N[C@@H](Cc1ccccc1)C(=O)O.N[C@@H](Cc1ccccc1)C(=O)O.O.O.[Cl-].[Cl-].[Mn+2]
2. N[C@@H](Cc1c[nH]cn1)C(=O)O.N[C@@H](Cc1c[nH]cn1)C(=O)O.O.O.[Cl-].[Cl-].[Mn+2]
3. N[C@@H](CS)C(=O)O.N[C@@H](CS)C(=O)O.O.O.[Cl-].[Cl-].[Mn+2]

1: 39.0; 2: 35.6; 3: 41.2

Data origin: patent EP0308983A2
